Biological target: Factor XIa (Homo sapiens (Human), UniProt P03951)
Sequence (P03951 388-625): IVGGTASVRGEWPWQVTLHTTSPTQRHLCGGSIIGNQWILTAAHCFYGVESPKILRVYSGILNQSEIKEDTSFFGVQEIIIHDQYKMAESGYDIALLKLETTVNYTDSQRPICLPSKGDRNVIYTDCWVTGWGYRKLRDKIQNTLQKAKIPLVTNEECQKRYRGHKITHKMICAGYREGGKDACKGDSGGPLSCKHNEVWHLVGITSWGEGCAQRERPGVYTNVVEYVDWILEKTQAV
Sequence (P03951 19-387 partner): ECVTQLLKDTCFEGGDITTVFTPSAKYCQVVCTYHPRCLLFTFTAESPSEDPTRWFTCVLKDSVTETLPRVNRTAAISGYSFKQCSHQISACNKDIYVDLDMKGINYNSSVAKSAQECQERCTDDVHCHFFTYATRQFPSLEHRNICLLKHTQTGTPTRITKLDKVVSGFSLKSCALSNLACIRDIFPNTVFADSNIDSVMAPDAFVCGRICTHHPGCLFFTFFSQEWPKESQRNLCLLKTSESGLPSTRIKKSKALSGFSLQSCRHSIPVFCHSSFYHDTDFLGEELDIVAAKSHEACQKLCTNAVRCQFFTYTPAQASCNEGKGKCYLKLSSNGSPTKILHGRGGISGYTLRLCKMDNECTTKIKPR
Assay: Factor XIa inhibition assay (FLINT) utilizing a fluorophore-quencher pair peptide substrate
Assay type: biochemical
Details: 30 min preincubation, kinetic reads over 30 min, 5Fam-[…]-K5Tamra substrate 15 μM; read-out: FXIa Kin Inh IC50
pIC50: −log10 of the molar value.
READOUT_KIND: pIC50

O=C1C=C(c2c(-n3cnnn3)ccc(Cl)c2F)C[C@H]2CC[C@@H](c3ncc(-c4ccnc(OCC5(O)CC5)c4F)[nH]3)N12 ... 9.22
NC(=O)c1ccc(-c2cnc([C@@H]3CC[C@@H]4CC(c5c(-n6cnnn6)ccc(Cl)c5F)=CC(=O)N43)[nH]2)s1 (relative stereo) ... 9.70
O=C1Nc2ccc(-c3cnc([C@@H]4CC[C@H]5CC(c6c(-n7cnnn7)ccc(Cl)c6F)=CC(=O)N54)[nH]3)cc2CO1 (relative stereo) ... 9.30
O=C1Nc2ccc(-c3cnc([C@@H]4CC[C@@H]5CC(c6c(-n7cnnn7)ccc(Cl)c6F)=CC(=O)N54)[nH]3)cc2CO1 (relative stereo) ... 9.70

P: Nc1ccccc1-c1cnc([C@@H]2CC[C@@H]3CC(c4c(-n5cnnn5)ccc(Cl)c4F)=CC(=O)N32)[nH]1 (relative stereo)
Q: O=C1C=C(c2c(-n3cnnn3)ccc(Cl)c2F)CC2CC[C@@H](c3nc(F)c(-c4ccnc(N[C@H]5CCOC5)c4F)[nH]3)N12 (relative stereo)
## Input Would you mind telling me which has the lower recorded pIC50 between P and Q ? Provide the label of your selected option as the answer.
## Output P
(P: 7.47, Q: 9.15)
